system: K12877-001-R-J1-PDC complex spheroid viability; experiment: Anticancer human tumor K12877-001-R-J1-PDC patient-derived lung adenocarcinoma cell line growth inhibition [RAS]; conditions: second compound 0.03 µM; first compound 0.003 µM; stronger effect = lower value
Parameter: viability, T/C. Scope: all listed entries.
Write the value in % as a bare number.

Use these answered entries as a reference point.
CCc1c2c(nc3ccc(O)cc13)-c1cc3c(c(=O)n1C2)COC(=O)[C@]3(O)CC + CCn1c(-c2cccnc2C(C)OC)c2c3cc(ccc31)N1CCOC(CC(NC(=O)C(C(C)C)N(C)C(=O)C3(F)CCN(C(=O)C#CC(C)(C)N(C)C)CC3)C(=O)N3CCCC(N3)C(=O)OCC(C)(C)C2)C1 :: 49.9
CCc1c2c(nc3ccc(O)cc13)-c1cc3c(c(=O)n1C2)COC(=O)[C@]3(O)CC + CCn1c(-c2cc(N3CCN(C)CC3)cnc2C(C)OC)c2c3cc(ccc31)-c1csc(n1)CC(NC(=O)C1CC1C)C(=O)N1CCCC(N1)C(=O)OCC(C)(C)C2 :: 67.8
CC1(C)CCC(Nc2ncc(C(F)(F)F)c(-c3c[nH]c4c(P(C)(C)=O)c(C#N)ccc34)n2)CN1 (centres undefined) + CCn1c(-c2cccnc2C(C)OC)c2c3cc(ccc31)N1CCOC(CC(NC(=O)C(C(C)C)N(C)C(=O)C3(F)CCN(C(=O)C#CC(C)(C)N(C)C)CC3)C(=O)N3CCCC(N3)C(=O)OCC(C)(C)C2)C1 :: 73.7

Now take the following compound into account.
Query CC1(C)CCC(Nc2ncc(C(F)(F)F)c(-c3c[nH]c4c(P(C)(C)=O)c(C#N)ccc34)n2)CN1 (centres undefined) + CCn1c(-c2cc(N3CCN(C)CC3)cnc2C(C)OC)c2c3cc(ccc31)-c1csc(n1)CC(NC(=O)C1CC1C)C(=O)N1CCCC(N1)C(=O)OCC(C)(C)C2 yields viability, T/C of 70.6

* * *

system: K12877-001-R-J1-PDC complex spheroid viability; assay: Anticancer human tumor K12877-001-R-J1-PDC cell line growth inhibition [RAS]; conditions: curve of first compound; second compound 0.0949 µM;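 note: spheroids exposed to agents for one week before readout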
measured_quantity: IC50 (nM)
Write the value in nM as a bare number.

Use these answered entries as a reference point.
NC1c2ccccc2OC12CCN(c1cnc3c(N4CCCc5ncccc54)n[nH]c3n1)CC2 (stereo not given) + CCn1c(-c2cccnc2C(C)OC)c2c3cc(ccc31)N1CCOC(CC(NC(=O)C(C(C)C)N(C)C(=O)C3(F)CCN(C(=O)C#CC(C)(C)N(C)C)CC3)C(=O)N3CCCC(N3)C(=O)OCC(C)(C)C2)C1 :: 136
CCc1c2c(nc3ccc(O)cc13)-c1cc3c(c(=O)n1C2)COC(=O)[C@]3(O)CC + CCn1c(-c2cc(N3CCN(C)CC3)cnc2C(C)OC)c2c3cc(ccc31)-c1csc(n1)CC(NC(=O)C1CC1C)C(=O)N1CCCC(N1)C(=O)OCC(C)(C)C2 :: 3.81
CCN1CCN(Cc2ccc(Nc3ncc(F)c(-c4cc(F)c5nc(C)n(C(C)C)c5c4)n3)nc2)CC1 + CCn1c(-c2cc(N3CCN(C)CC3)cnc2C(C)OC)c2c3cc(ccc31)-c1csc(n1)CC(NC(=O)C1CC1C)C(=O)N1CCCC(N1)C(=O)OCC(C)(C)C2 :: 516
CC(C)n1nc(-c2ccc3oc(N)nc3c2)c2c(N)ncnc21 + CCn1c(-c2cccnc2C(C)OC)c2c3cc(ccc31)N1CCOC(CC(NC(=O)C(C(C)C)N(C)C(=O)C3(F)CCN(C(=O)C#CC(C)(C)N(C)C)CC3)C(=O)N3CCCC(N3)C(=O)OCC(C)(C)C2)C1 :: 3.56

Now take the following molecule into account.
Query CC(Nc1ccc2c(c1)OCCn1cc(N3C(=O)OCC3C(F)F)nc1-2)C(N)=O (stereo not given) + CCn1c(-c2cc(N3CCN(C)CC3)cnc2C(C)OC)c2c3cc(ccc31)-c1csc(n1)CC(NC(=O)C1CC1C)C(=O)N1CCCC(N1)C(=O)OCC(C)(C)C2 yields IC50 of 249
